Tested on: human σ1 receptor and human μ-opioid receptor
Experiment: Human σ1 receptor radioligand assay and human μ-opioid receptor radioligand assay (μ and σ1 dual binding)
Set-up: key: +: Both Ki-μ and Ki-σ1>=500 nM; ++: One K, <500 nM while the other K, is >=500 nM; +++: Both Ki-μ and Ki-σ1<500 nM; ++++: Both Ki-μ and Ki-σ1<100 nM
Conditions: one class for both Ki: σ1 ([3H](+)-pentazocine, transfected HEK-293 membranes) and μ-opioid ([3H]-DAMGO, transfected CHO-K1 membranes)
measurement.label: μ and σ1 dual binding

Below are worked cases with known answers.
# smiles.text, target.entity, μ and σ1 dual binding
data = [
    ("O=S(=O)(Nc1cccc(N2CCN(Cc3cn(-c4ccc(C(F)(F)F)cn4)nn3)CC2)n1)C1CC1", "human σ1 receptor and human μ-opioid receptor", "++"),
    ("CC(C)(C)NS(=O)(=O)c1cccc(N2CCN(Cc3cn(-c4ccccc4)nn3)CC2)c1", "human σ1 receptor and human μ-opioid receptor", "++"),
    ("O=S(=O)(Nc1cccc(N2CCN(Cc3cn(-c4ccc(C(F)(F)F)cc4)nn3)CC2)n1)C1CC1", "human σ1 receptor and human μ-opioid receptor", "++"),
    ("COc1cncc(-n2cc(CN3CCN(c4cccc(NS(=O)(=O)C(C)C)n4)CC3)nn2)c1", "human σ1 receptor and human μ-opioid receptor", "++"),
    ("CC(C)S(=O)(=O)Nc1cccc(N2CCN(Cc3cn(-c4cncc(Cl)c4)nn3)CC2)n1", "human σ1 receptor and human μ-opioid receptor", "++"),
]

Q: Please indicate μ and σ1 dual binding recorded for Nc1cccc(N2CCN(Cc3cn(-c4ccccc4F)nn3)CC2)n1
A: ++

Q: Please indicate μ and σ1 dual binding recorded for CS(=O)(=O)Nc1cccc(N2CCN(Cc3cn(-c4ccccc4)nn3)CC2)n1
A: ++

Q: Please indicate μ and σ1 dual binding recorded for CC(C)S(=O)(=O)Nc1cccc(N2CCN(Cc3cn(-c4ccc(Cl)cc4F)nn3)CC2)n1
A: ++

----------
System: human σ1 receptor and human μ-opioid receptor
Assay: Human σ1 receptor radioligand assay and human μ-opioid receptor radioligand assay (μ and σ1 dual binding)
Parameters: key: +: Both Ki-μ and Ki-σ1>=500 nM; ++: One K, <500 nM while the other K, is >=500 nM; +++: Both Ki-μ and Ki-σ1<500 nM; ++++: Both Ki-μ and Ki-σ1<100 nM
Conditions: one class for both Ki: σ1 ([3H](+)-pentazocine, transfected HEK-293 membranes) and μ-opioid ([3H]-DAMGO, transfected CHO-K1 membranes)
measurement.label: μ and σ1 dual binding

Below are worked cases with known answers.
# molecule, μ and σ1 dual binding
measured = [
    ("Cc1ccc(F)c(-n2cc(CN3CCN(c4cccc(NS(=O)(=O)C5CC5)n4)CC3)nn2)c1 [Example 66]", "++"),
    ("O=S(=O)(Nc1cccc(N2CCN(Cc3cn(-c4ccc(C(F)(F)F)cc4F)nn3)CC2)n1)C1CC1 [Example 69]", "++"),
    ("CC(C)S(=O)(=O)Nc1cccc(N2CCN(Cc3cn(-c4cc(F)ccn4)nn3)CC2)c1 [Example 22]", "++"),
    ("CC(C)S(=O)(=O)Nc1cccc(N2CCN(Cc3cn(Cc4ccccn4)nn3)CC2)c1 [Example 16]", "++"),
    ("CC(C)S(=O)(=O)Nc1cccc(N2CCN(Cc3cn(-c4ccccc4O)nn3)CC2)n1 [Example 46]", "++"),
]

Q: Please indicate μ and σ1 dual binding recorded for CS(=O)(=O)Nc1cccc(N2[C@@H]3CC[C@H]2CN(Cc2cn(-c4ccccc4)nn2)C3)c1 [Example 23]
A: ++

Q: Please indicate μ and σ1 dual binding recorded for CC(C)S(=O)(=O)Nc1cccc(N2CC3CN(Cc4cn(Cc5ccccc5)nn4)CC3C2)n1 (centres unmarked) [Example 54]
A: ++

Q: Please indicate μ and σ1 dual binding recorded for CS(=O)(=O)Nc1cccc(N2CCN(Cc3cnn(Cc4ccccn4)c3)CC2)c1 [Example 35]
A: ++

Q: Please indicate μ and σ1 dual binding recorded for CC(C)S(=O)(=O)Nc1cccc(N2CCN(Cc3cn(-c4ncccc4F)nn3)CC2)c1 [Example 21]
A: ++

Q: Please indicate μ and σ1 dual binding recorded for Oc1cccc(N2CCN(Cc3cn(-c4ccccn4)nn3)CC2)c1 [Example 7]
A: ++

Q: Please indicate μ and σ1 dual binding recorded for CCC(=O)Nc1cccc(N2CCN(Cc3cn(-c4ccccc4F)nn3)CC2)n1 [Example 45]
A: ++

Q: Please indicate μ and σ1 dual binding recorded for CC(C)S(=O)(=O)Nc1cccc(N2CCN(Cc3cn(-c4ccc(Cl)cn4)nn3)CC2)n1 [Example 58]
A: ++

Q: Please indicate μ and σ1 dual binding recorded for O=S(=O)(Nc1cccc(N2CCN(Cc3cn(-c4cc(F)ccc4F)nn3)CC2)n1)C1CC1 [Example 65]
A: ++

Q: Please indicate μ and σ1 dual binding recorded for CC(C)S(=O)(=O)Nc1cccc(N2CCCN(Cc3cn(Cc4ccccn4)nn3)CC2)n1 [Example 59]
A: ++

Q: Please indicate μ and σ1 dual binding recorded for CC(C)S(=O)(=O)Nc1cccc(N2CC3CN(Cc4cn(-c5ccccc5F)nn4)CC3C2)n1 (centres unmarked) [Example 61]
A: ++

Q: Please indicate μ and σ1 dual binding recorded for Oc1cccc(N2CCN(Cc3cn(Cc4ccccc4)nn3)CC2)c1 [Example 6]
A: ++

Q: Please indicate μ and σ1 dual binding recorded for CS(=O)(=O)Nc1cccc(N2CCN(Cc3cn(Cc4ccccc4)nn3)CC2)c1 [Example 3]
A: ++

----------
Tested on: human σ1 receptor and human μ-opioid receptor
Experiment: Human σ1 receptor radioligand assay and human μ-opioid receptor radioligand assay (μ and σ1 dual binding)
Parameters: key: +: Both Ki-μ and Ki-σ1>=500 nM; ++: One K, <500 nM while the other K, is >=500 nM; +++: Both Ki-μ and Ki-σ1<500 nM; ++++: Both Ki-μ and Ki-σ1<100 nM
Settings: one class for both Ki: σ1 ([3H](+)-pentazocine, transfected HEK-293 membranes) and μ-opioid ([3H]-DAMGO, transfected CHO-K1 membranes)

# smiles.text, μ and σ1 dual binding
records = [
    ("O=S(=O)(Nc1cccc(N2CCN(Cc3cn(-c4ncccc4F)nn3)CC2)n1)C1CC1", "++"),
    ("CC(C)S(=O)(=O)Nc1cccc(N2CCN(Cc3cn(-c4ccc(F)cn4)nn3)CC2)c1", "++"),
    ("Oc1cccc(N2CCN(Cc3cn(-c4ccccc4)nn3)CC2)c1", "++"),
]

Where these numbers come from: patent US10745361B2
